assay.comment: self-splicing fitness, log relative to wild type (ln ratio); higher = more splicing; Tetrahymena group I intron in knt gene, E. coli kanamycin selection, DiMSum; sequences stand for … in CUCUCU…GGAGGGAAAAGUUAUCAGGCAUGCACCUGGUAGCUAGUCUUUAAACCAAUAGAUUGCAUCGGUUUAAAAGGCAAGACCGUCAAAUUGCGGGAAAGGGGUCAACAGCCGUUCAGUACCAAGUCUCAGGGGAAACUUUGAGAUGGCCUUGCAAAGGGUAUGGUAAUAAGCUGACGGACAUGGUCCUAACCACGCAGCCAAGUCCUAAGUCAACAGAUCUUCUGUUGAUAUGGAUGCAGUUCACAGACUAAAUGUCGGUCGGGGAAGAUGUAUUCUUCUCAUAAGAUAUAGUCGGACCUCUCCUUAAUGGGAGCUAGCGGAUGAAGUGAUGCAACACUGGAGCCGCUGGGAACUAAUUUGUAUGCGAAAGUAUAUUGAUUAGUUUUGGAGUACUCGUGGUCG;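 note: selection with 25 µg/mL kanamycin versus none on LB agar overnight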
measurement.conditions: 30 °C
Recorded self-splicing fitness (ln) for the following sequences
// no unit string in output, number only

1. UGGCAGCAAUAUUACGGUCA: -2.12
2. GCAUAGCAAUAUUACGAUUG: -2.38
3. CUUAAGCAAUAUUACGCUUA: -3.39
4. CGCGAGCAAUAUUACGAAUG: -1.9

The reported self-splicing fitness (ln) of the sequence AAUCAGCAAUAUUACGUGAA was -0.152

The reported self-splicing fitness (ln) of the sequence UACUAGCAAUAUUACGACGG was -0.517

The reported self-splicing fitness (ln) of the sequence UUCUAGCAAUAUUACGUGUC was -3.35

The reported self-splicing fitness (ln) of the sequence GACGAGCAAUAUUACGCACC was -3.06

The reported self-splicing fitness (ln) of the sequence UUAGAGCAAUAUUACGGGCA was -2.25

The reported self-splicing fitness (ln) of the sequence ACCUAGCAAUAUUACGAUGA was -1.21

The reported self-splicing fitness (ln) of the sequence GAUAAGCAAUAUUACGAUUA was -0.905

The reported self-splicing fitness (ln) of the sequence ACGUAGCAAUAUUACGGGUA was -1.29

The reported self-splicing fitness (ln) of the sequence UAAAAGCAAUAUUACGGGGA was -1.73

The reported self-splicing fitness (ln) of the sequence ACGAAGCAAUAUUACGCGGA was -1.96

The reported self-splicing fitness (ln) of the sequence UCAAAGCAAUAUUACGUGAC was -3.36

The reported self-splicing fitness (ln) of the sequence AUGGAGCAAUAUUACGACAU was -1.36

The reported self-splicing fitness (ln) of the sequence CUUAAGCAAUAUUACGUUCG was -1.05
